B1: RAB11B (parent)
chain: AVPTDEARAFAEKNNLSFIETSAL

# Variants of: B1
# Test: protein stability index of a GFP-peptide fusion (GPS, HEK-293T) (PSI 1-6); higher = more stable;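 further: lentivirally expressed fusions sorted by FACS into six bins by GFP to DsRed ratio, PSI derived from sequencing read proportions per bin multiplied by bin number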
# Test settings: c terminus: a fixed tail appended
Parameter threshold = 3. Response is t when protein stability index meets or exceeds it, else f.

Seq string: ARPTDEARAFAEKNNLSFIETSAL
Class name: f
--
Seq string: AVPTDEARAFAEKNNTSFIETSAL
Class name: t

Query string: Decide: is the reported value of protein stability index for AVPTDEARAFAEKNNLSFIETSAS equal to or greater than 3?
Result string: t

Query string: Decide: is the reported value of protein stability index for AVPTDEARAFAEKNNLSFICTSAL equal to or greater than 3?
Result string: f

Query string: Decide: is the reported value of protein stability index for AVPTDEARAFAEKNNLSFIETDAL equal to or greater than 3?
Result string: t

Query string: Decide: is the reported value of protein stability index for AVPTDEARAFFEKNNLSFIETSAL equal to or greater than 3?
Result string: f

Query string: Decide: is the reported value of protein stability index for AVPTDEARFFAEKNNLSFIETSAL equal to or greater than 3?
Result string: f

Query string: Decide: is the reported value of protein stability index for AVPTDEARIFAEKNNLSFIETSAL equal to or greater than 3?
Result string: f

Query string: Decide: is the reported value of protein stability index for AVPTDEARRFAEKNNLSFIETSAL equal to or greater than 3?
Result string: f

Query string: Decide: is the reported value of protein stability index for AVPTDEARAFAEKNNLSFIERSAL equal to or greater than 3?
Result string: t
